- condition-context: human gut metagenome, 24 h, 2 µM; also: call rule not given here
measured-parameter: Bacterial Biotransformation

>>> print(df.to_string())
                                   compound           measured_parameter       recorded_result
0  O=P(O)(O)O.c1ccc(CN(CC2=NCCN2)c2ccccc2)cc1 [ANTAZOLINE PHOSPHATE]  Bacterial Biotransformation  Compound metabolized
1  CCCCCOC(=O)Nc1nc(=O)n([C@@H]2O[C@H](C)[C@@H](O)[C@H]2O)cc1F  Bacterial Biotransformation  Compound metabolized
2  CNS(=O)(=O)Cc1ccc2[nH]cc(CCN(C)C)c2c1.O=C(O)CCC(=O)O [SUMATRIPTAN SUCCINATE]  Bacterial Biotransformation  Compound metabolized

----------
- condition-context: human gut metagenome, 24 h, 2 µM
measured-parameter: Bacterial Biotransformation

Illustrative cases are given below, each with its answer.
                                   molecule       recorded_result
0  Cc1ccc(S(=O)(=O)NC(=O)NN2CCCCCC2)cc1 [TOLAZAMIDE]  Compound metabolized
1  COc1cc2nc(N(C)CCCNC(=O)C3CCCO3)nc(N)c2cc1OC (stereo unspecified)  Compound metabolized
2  CS(=O)(=O)O.O.O.O.O=C1Cc2cc(CCN3CCN(c4nsc5ccccc45)CC3)c(Cl)cc2N1 [ZIPRASIDONE MESYLATE]  Compound metabolized
3  CN(C)C(=O)C(CCN1CCC(O)(c2ccc(Cl)cc2)CC1)(c1ccccc1)c1ccccc1 [LOPERAMIDE]  Compound metabolized
4     CN1CCN(C2=Nc3cc(Cl)ccc3Nc3ccccc32)CC1  Compound metabolized

// input: 4 molecules below; output: Bacterial Biotransformation for each
1. CC(=O)OCC(=O)[C@@]12N=C(C)O[C@@H]1C[C@H]1[C@@H]3CCC4=CC(=O)C=C[C@]4(C)[C@H]3[C@@H](O)C[C@@]12C
2. COC1=CC(=O)C[C@@H](C)[C@]12Oc1c(Cl)c(OC)cc(OC)c1C2=O
3. CN1C(=O)CCS(=O)(=O)C1c1ccc(Cl)cc1 (stereo unspecified)
4. CNC(=C[N+](=O)[O-])NCCSCc1csc(CN(C)C)n1

*A*
Compound metabolized
Compound metabolized
Compound NOT metabolized
Compound NOT metabolized

Hi, could you look up Bacterial Biotransformation for each item in my list?
1. CC(C)(Oc1ccc(CCNC(=O)c2ccc(Cl)cc2)cc1)C(=O)O [BEZAFIBRATE]
2. Nc1c2c(nc3ccccc13)CCCC2
3. CCCCc1nc(Cl)c(CO)n1Cc1ccc(-c2ccccc2-c2nn[nH]n2)cc1
4. CC(C)c1nc(CN(C)C(=O)N[C@H](C(=O)N[C@@H](Cc2ccccc2)C[C@H](O)[C@H](Cc2ccccc2)NC(=O)OCc2cncs2)C(C)C)cs1
5. Cc1ccc(/C(=C\CN2CCCC2)c2ccccn2)cc1
6. CN/C(=N/CCSCc1nc[nH]c1C)NC#N
7. CN(C)CC(c1ccc(O)cc1)C1(O)CCCCC1.O=C(O)CCC(=O)O (stereo unspecified) [DESVENLAFAXINE SUCCINATE]

*A*
["Compound metabolized", "Compound NOT metabolized", "Compound metabolized", "Compound metabolized", "Compound NOT metabolized", "Compound metabolized", "Compound NOT metabolized"]

----------
- condition-context: human gut metagenome, 24 h, 2 µM
measured-parameter: Bacterial Biotransformation

Solved cases (8 shown):
In [3]: df
Out[3]:
                                   compound           recorded_result
0     CN1CCN(C2=Nc3cc(Cl)ccc3Nc3ccccc32)CC1      Compound metabolized
1  CO[C@]12C[C@@H](COC(=O)c3cncc(Br)c3)CN(C)[C@@H]1Cc1cn(C)c3cccc2c13      Compound metabolized
2                 COc1c2occc2cc2ccc(=O)oc12      Compound metabolized
3  CN1CCN(CC/C=C2/c3ccccc3Sc3ccc(S(=O)(=O)N(C)C)cc32)CC1      Compound metabolized
4  CCCCc1nc(Cl)c(CO)n1Cc1ccc(-c2ccccc2-c2nn[nH]n2)cc1      Compound metabolized
5  CN1C(=O)CCS(=O)(=O)C1c1ccc(Cl)cc1 (centres undefined)  Compound NOT metabolized
6  CC(C)NCC(O)COc1ccc(CCOCC2CC2)cc1 (centres undefined)  Compound NOT metabolized
7  CC(O)(CS(=O)(=O)c1ccc(F)cc1)C(=O)Nc1ccc(C#N)c(C(F)(F)F)c1 (centres undefined) [BICALUTAMIDE]  Compound NOT metabolized

In plain terms, CS(=O)(=O)O.OC(CCN1CCCCC1)(c1ccccc1)c1ccccc1 [PRIDINOL METHANESULFONATE] has a documented Bacterial Biotransformation of Compound NOT metabolized

Ref: ChEMBL document CHEMBL5724914
